- assayed.system: Escherichia coli methylmalonyl-CoA decarboxylase (YgfG, MMCD) (Escherichia coli, UniProt P52045)
- Sequence (P52045 whole entry): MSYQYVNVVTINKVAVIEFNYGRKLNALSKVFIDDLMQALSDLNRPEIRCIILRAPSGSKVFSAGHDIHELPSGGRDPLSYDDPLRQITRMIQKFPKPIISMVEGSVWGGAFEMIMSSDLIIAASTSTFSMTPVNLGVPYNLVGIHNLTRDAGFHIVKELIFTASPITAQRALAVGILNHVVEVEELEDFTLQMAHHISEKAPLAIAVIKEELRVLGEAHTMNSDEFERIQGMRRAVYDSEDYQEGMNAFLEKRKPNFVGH
readout.type: pKi
Numbers only, as −log10 of the molar value.

CC(C(=O)SCCNC(=O)CCNC(=O)[C@H](O)C(C)(C)COP(=O)(O)OP(=O)(O)OC[C@H]1O[C@@H](n2cnc3c(N)ncnc32)[C@H](O)[C@@H]1OP(=O)(O)O)[N+](=O)[O-] (stereo partly drawn) ... 4.97
CC(C(=O)OCCNC(=O)CCNC(=O)[C@H](O)C(C)(C)COP(=O)(O)OP(=O)(O)OC[C@H]1O[C@@H](n2cnc3c(N)ncnc32)[C@H](O)[C@@H]1OP(=O)(O)O)[N+](=O)[O-] (stereo partly drawn) ... 4.69
CC(C(=O)OCCNC(=O)CCNC(=O)C(O)C(C)(C)COP(=O)(O)OP(=O)(O)OCC1OC(n2cnc3c(N)ncnc32)C(O)C1OP(=O)(O)O)S(=O)(=O)O (stereo not drawn) ... 5.42
CC(C(=O)NCCNC(=O)CCNC(=O)[C@H](O)C(C)(C)COP(=O)(O)OP(=O)(O)OC[C@H]1O[C@@H](n2cnc3c(N)ncnc32)[C@H](O)[C@@H]1OP(=O)(O)O)[N+](=O)[O-] (stereo partly drawn) ... 4.70
CC(C(=O)SCCNC(=O)CCNC(=O)C(O)C(C)(C)COP(=O)(O)OP(=O)(O)OCC1OC(n2cnc3c(N)ncnc32)C(O)C1OP(=O)(O)O)S(=O)(=O)O (stereo not drawn) ... 5.12

Retrieve pKi measured for CC(C(=O)NCCNC(=O)CCNC(=O)C(O)C(C)(C)COP(=O)(O)OP(=O)(O)OCC1OC(n2cnc3c(N)ncnc32)C(O)C1OP(=O)(O)O)S(=O)(=O)O (stereo not drawn) and print it.
5.15
